system: HT-29 cells; assay: HT-29 cell proliferation (Cell Titer-Glo, 6 days); format: cell-based; details: Homo sapiens, HT-29, 144 h

Molecule: COc1ccc(NC(=O)c2ccc(NS(=O)(=O)CCO)cc2N2CCC3(CC2)CC3)c2cc3n(c12)CCOC3
IC50: ≤ 0.2 µM

Molecule: CC1(C)Cn2c(cc3c(NC(=O)c4ccc(NS(=O)(=O)CCO)cc4N4CCC5(CC4)CC5)cccc32)CO1
IC50: ≤ 0.2 µM

Molecule: COc1ccc(NC(=O)c2ccc(NS(=O)(=O)CCO)cc2N2CCC3(CC2)CC3)c2cc3n(c12)CC(C)(C)OC3
IC50: ≤ 0.2 µM

Molecule: [2H]C([2H])([2H])OC1c2cc3c(NC(=O)c4ccc(NS(=O)(=O)CCO)cc4N4CCC(=C(F)F)CC4)cccc3n2CCC1(F)F (stereo not shown)
IC50: 0.2 to 1 µM

Molecule: O=C(Nc1cccc2c1cc1n2CCC(F)(F)C1)c1ccc(NS(=O)(=O)CCO)cc1N1CCC(=C(F)F)CC1
IC50: ≤ 0.2 µM

Molecule: CC1(C)Cn2c(cc3c(NC(=O)c4ccc(NS(=O)(=O)CCO)cc4N4CCC5(CC4)CC5)ccc(C#N)c32)CO1
IC50: ≤ 0.2 µM

Molecule: N#Cc1ccc(NC(=O)c2ccc(NS(=O)(=O)CCO)cc2N2CCC3(CC2)CC3)c2cc3n(c12)CCOC3
IC50: ≤ 0.2 µM

Molecule: CC1(C)Cn2c(nc3c(NC(=O)c4ccc(NS(=O)(=O)CCO)cc4N4CCC5(CC4)CC5)cccc32)CO1
IC50: ≤ 0.2 µM

Molecule: CC1Cn2c(cc3c(NC(=O)c4ccc(NS(=O)(=O)CCO)cc4N4CCC5(CC4)CC5)cccc32)C(C)O1 (single isomer, unassigned)
IC50: ≤ 0.2 µM

Molecule: [2H]C([2H])([2H])OC1c2cc3c(NC(=O)c4ccc(NS(=O)(=O)CCO)cc4N4CCC5(CC4)CC5)cccc3n2CCC1(F)F (stereo not shown)
IC50: ≤ 0.2 µM

Molecule: O=C(Nc1cccc2c1cc1n2CCC(F)(F)C1O)c1ccc(NS(=O)(=O)CCO)cc1N1CCC2(CC1)CC2 (single isomer, unassigned) [Compound 384-P1]
IC50: ≤ 0.2 µM

Molecule: CC1(C)Cn2c(cc3c(NC(=O)c4ccc(NS(=O)(=O)CCO)cc4N4CCC(=C(F)F)CC4)ccc(C#N)c32)CO1
IC50: ≤ 0.2 µM

Molecule: CC1(C)OCCn2c1cc1c(NC(=O)c3ccc(NS(=O)(=O)CCO)cc3N3CCC(=C(F)F)CC3)cccc12
IC50: 0.2 to 1 µM

###

target: hERG channel (Homo sapiens (Human), UniProt Q12809); experiment: hERG manual patch clamp test; assay type: cell-based
Sequence (Q12809 whole entry): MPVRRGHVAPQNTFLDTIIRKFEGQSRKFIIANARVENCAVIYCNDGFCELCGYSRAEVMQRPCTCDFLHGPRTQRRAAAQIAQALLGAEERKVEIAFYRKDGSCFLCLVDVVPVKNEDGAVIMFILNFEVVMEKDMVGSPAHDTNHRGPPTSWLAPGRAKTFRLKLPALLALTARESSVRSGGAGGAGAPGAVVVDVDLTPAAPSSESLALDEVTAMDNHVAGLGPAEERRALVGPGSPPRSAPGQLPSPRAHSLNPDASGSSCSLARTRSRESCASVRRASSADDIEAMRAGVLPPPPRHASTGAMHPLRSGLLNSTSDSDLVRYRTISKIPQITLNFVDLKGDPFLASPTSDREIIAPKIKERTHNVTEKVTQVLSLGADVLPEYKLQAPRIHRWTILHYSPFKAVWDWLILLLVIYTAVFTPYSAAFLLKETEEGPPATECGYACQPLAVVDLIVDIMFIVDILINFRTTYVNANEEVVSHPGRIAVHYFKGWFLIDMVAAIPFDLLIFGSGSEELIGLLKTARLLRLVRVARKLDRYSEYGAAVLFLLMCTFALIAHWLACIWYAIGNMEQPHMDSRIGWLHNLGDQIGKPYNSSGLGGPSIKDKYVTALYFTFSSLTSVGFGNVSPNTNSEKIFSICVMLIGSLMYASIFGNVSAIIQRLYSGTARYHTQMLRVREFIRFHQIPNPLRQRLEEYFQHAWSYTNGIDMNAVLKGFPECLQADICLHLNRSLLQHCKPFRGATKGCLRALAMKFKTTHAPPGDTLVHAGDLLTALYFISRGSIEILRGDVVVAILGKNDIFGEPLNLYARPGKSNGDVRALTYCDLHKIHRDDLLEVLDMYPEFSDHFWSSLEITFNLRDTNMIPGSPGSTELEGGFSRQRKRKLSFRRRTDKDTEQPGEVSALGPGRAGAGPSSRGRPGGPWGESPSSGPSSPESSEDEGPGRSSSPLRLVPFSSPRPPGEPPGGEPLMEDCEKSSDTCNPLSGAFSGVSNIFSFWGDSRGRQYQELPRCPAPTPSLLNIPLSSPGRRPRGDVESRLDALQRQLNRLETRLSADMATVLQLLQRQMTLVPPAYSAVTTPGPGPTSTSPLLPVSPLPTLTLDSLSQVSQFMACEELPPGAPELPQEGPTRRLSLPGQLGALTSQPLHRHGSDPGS
// reported IC50 for each item listed

Structure Smiles: COc1ccc(NC(=O)c2ccc(NS(=O)(=O)CCO)cc2N2CCC3(CC2)CC3)c2cc3n(c12)CC(C)(C)OC3
Target Under Test: hERG channel (Homo sapiens (Human), UniProt Q12809)
IC50: > 10 µM

Structure Smiles: COc1ccc(NC(=O)c2ccc(NS(=O)(=O)CCO)cc2N2CCC3(CC2)CC3)c2cc3n(c12)CCC(F)(F)C3
Target Under Test: hERG channel (Homo sapiens (Human), UniProt Q12809)
IC50: 8 µM

###

Listing: IC50 of selected compounds
system: HCC1954 cells; experiment: HCC1954 cell proliferation (Cell Titer-Glo, 6 days); format: cell-based; details: Homo sapiens, HCC1954, 144 h, KIF18A-sensitive tumor cells

Compound: O=C(Nc1cccc2c1oc(=O)n2CC1CC1)c1ccc(NS(=O)(=O)CCO)cc1N1CCC2(CC1)CC2 [Example 18]
Target Under Test: HCC1954 cells
IC50: > 5000 nM

Compound: O=C(Nc1ccc(F)c2c1cc1n2CCOC1)c1ccc(NS(=O)(=O)CCO)cc1N1CCC2(CC1)CC2 [Example 305]
Target Under Test: HCC1954 cells
IC50: 10 to 500 nM

Compound: CC1OCCn2c1cc1c(NC(=O)c3ccc(NS(=O)(=O)CCO)cc3N3CCC(=C(F)F)CC3)cccc12 (stereo not shown) [Example 320]
Target Under Test: HCC1954 cells
IC50: 10 to 500 nM

Compound: O=C(Nc1cccc2c1nc1n2CCOC1)c1ccc(NS(=O)(=O)CCO)cc1N1CCC2(CC1)CC2 [Example 304]
Target Under Test: HCC1954 cells
IC50: 10 to 500 nM

###

test: PK study in ICR mice; assay type: in vivo, mouse; conditions: both sexes, mouse, plasma, route and dose not given, read-out: Cmax
log10 Cmax listing for selected compounds.
Outcome Measure: log10 Cmax (log10 of the value in ng/mL)

Compound: CC1(C)Cn2c(cc3c(NC(=O)c4ccc(NS(=O)(=O)CCO)cc4N4CCC(=C(F)F)CC4)ccc(C#N)c32)CO1
log10 Cmax: 3.58
//
Compound: CC1(C)Cn2c(nc3c(NC(=O)c4ccc(NS(=O)(=O)CCO)cc4N4CCC5(CC4)CC5)cccc32)CO1
log10 Cmax: 3.64
//
Compound: COc1ccc(NC(=O)c2ccc(NS(=O)(=O)CCO)cc2N2CCC3(CC2)CC3)c2cc3n(c12)CCC(F)(F)C3
log10 Cmax: 3.78
//
Compound: CC1Cn2c(cc3c(NC(=O)c4ccc(NS(=O)(=O)CCO)cc4N4CCC5(CC4)CC5)cccc32)C(C)O1 (single isomer, unassigned)
log10 Cmax: 3.47
//
Compound: CC1(C)Cn2c(cc3c(NC(=O)c4ccc(NS(=O)(=O)CCO)cc4N4CCC(=C(F)F)CC4)cccc32)CO1
log10 Cmax: 3.55
//
Compound: COc1ccc(NC(=O)c2ccc(NS(=O)(=O)CCO)cc2N2CCC3(CC2)CC3)c2cc3n(c12)CC(C)(C)OC3
log10 Cmax: 3.75
//
Compound: N#Cc1ccc(NC(=O)c2ccc(NS(=O)(=O)CCO)cc2N2CCC3(CC2)CC3)c2cc3n(c12)CCOC3
log10 Cmax: 3.48
//
Compound: CCOc1ccc(NC(=O)c2ccc(NS(=O)(=O)CCO)cc2N2CCC3(CC2)CC3)c2cc3n(c12)CC(C)(C)OC3
log10 Cmax: 3.92
//
Compound: O=C(Nc1cccc2c1nc1n2CCOC1)c1ccc(NS(=O)(=O)CCO)cc1N1CCC(=C(F)F)CC1
log10 Cmax: 3.38
//
Compound: CC1(C)Cn2c(nc3c(NC(=O)c4ccc(NS(=O)(=O)CCO)cc4N4CCC(=C(F)F)CC4)cccc32)CO1
log10 Cmax: 3.63
//
Compound: CC1=CCCn2c1cc1c(NC(=O)c3ccc(NS(=O)(=O)CCO)cc3N3CCC4(CC3)CC4)cccc12
log10 Cmax: 3.45
//
Compound: O=C(Nc1ccc(F)c2c1nc1n2CCOC1)c1ccc(NS(=O)(=O)CCO)cc1N1CCC2(CC1)CC2
log10 Cmax: 3.04
//
Compound: O=C(Nc1cccc2c1cc1n2CCC(F)(F)C1O)c1ccc(NS(=O)(=O)CCO)cc1N1CCC2(CC1)CC2 (single isomer, unassigned) [Compound 384-P1]
log10 Cmax: 2.56
//
Compound: CC1(C)Cn2c(cc3c(NC(=O)c4ccc(NS(=O)(=O)CCO)cc4N4CCC5(CC4)CC5)ccc(C#N)c32)CO1
log10 Cmax: 3.71

###

tested on: HCT116 cells; experiment: HCT116 cell anti-proliferation assay; type: cell-based; settings: 6 days, Cell Titer-Glo
Below, each entry is listed alongside its reported IC50.
Outcome Measure: IC50

Compound: CC1(O)CCCn2c1cc1c(NC(=O)c3ccc(NS(=O)(=O)CCO)cc3N3CCC4(CC3)CC4)cccc12 (stereo not drawn) [Example 372]
Result: > 10 µM
//
Compound: N#Cc1ccc(NC(=O)c2ccc(NS(=O)(=O)CCO)cc2N2CCC(=C(F)F)CC2)c2cc3n(c12)CCC(F)(F)C3 [Example 378]
Result: > 10 µM
//
Compound: COc1ccc(NC(=O)c2ccc(NS(=O)(=O)CCO)cc2N2CCC(=C(F)F)CC2)c2cc3n(c12)CC(C)(C)OC3 [Example 465]
Result: > 10 µM
//
Compound: CC1Cn2c(cc3c(NC(=O)c4ccc(NS(=O)(=O)CCO)cc4N4CCC5(CC4)CC5)cccc32)C(C)O1 (single isomer, unassigned) [Compound 312-P2A]
Result: 6.7 µM
//
Compound: N#Cc1ccc(NC(=O)c2ccc(NS(=O)(=O)CCO)cc2N2CCC3(CC2)CC3)c2cc3n(c12)CCC(F)(F)C3 [Example 379]
Result: 9.8 µM
//
Compound: O=C(Nc1cccc2c1cc1n2CC2CCC1O2)c1ccc(NS(=O)(=O)CCO)cc1N1CCC(=C(F)F)CC1 (stereo not drawn) [Compound 398]
Result: > 10 µM

###

AUC: recorded values
test: PK study in ICR mice; format: in vivo, mouse; conditions: both sexes, mouse, plasma, route and dose not given, read-out: AUC

Compound: O=C(Nc1cccc2c1cc1n2CC2(CC2)OC1)c1ccc(NS(=O)(=O)CCO)cc1N1CCC(=C(F)F)CC1 [Example 485]
AUC (ng·h/mL): 33300

Compound: CC1(C)Cn2c(cc3c(NC(=O)c4ccc(NS(=O)(=O)CCO)cc4N4CCC(=C(F)F)CC4)cccc32)CO1 [Example 370]
AUC (ng·h/mL): 52400

Compound: O=C(Nc1ccc(F)c2c1cc1n2CCOC1)c1ccc(NS(=O)(=O)CCO)cc1N1CCC(=C(F)F)CC1 [Example 321]
AUC (ng·h/mL): 16000

Compound: CNc1cc(NS(=O)(=O)CCO)cc(N2CCC3(CC2)CC3)c1C(=O)Nc1ccc(OC)c(N2CCC(F)(F)CC2)n1 [Example 491]
AUC (ng·h/mL): 24800

Compound: CC1(C)Cn2c(cc3c(NC(=O)c4ccc(NS(=O)(=O)CCO)cc4N4CCC5(CC4)CC5)cccc32)CO1 [Example 371]
AUC (ng·h/mL): 51200

Compound: O=C(Nc1cccc2c1cc1n2CCOC1)c1ccc(NS(=O)(=O)CCO)cc1N1CCC2(CC1)CC2 [Example 235]
AUC (ng·h/mL): 5980

Compound: O=C(Nc1ccc(OC(F)F)c2c1cc1n2CCC(F)(F)C1)c1ccc(NS(=O)(=O)CCO)cc1N1CCC2(CC1)CC2 [Example 583]
AUC (ng·h/mL): 43300

Compound: COc1ccc(NC(=O)c2ccc(NS(=O)(=O)CCO)cc2N2CCC3(CC2)CC3)c2cc3n(c12)CCC(F)(F)C3 [Example 478]
AUC (ng·h/mL): 48500

Compound: CC1(C)Cn2c(nc3c(NC(=O)c4ccc(NS(=O)(=O)CCO)cc4N4CCC(=C(F)F)CC4)cccc32)CO1 [Compound 394]
AUC (ng·h/mL): 47800

Compound: O=C(Nc1ccc(F)c2c1nc1n2CCOC1)c1ccc(NS(=O)(=O)CCO)cc1N1CCC2(CC1)CC2 [Example 308]
AUC (ng·h/mL): 5650

Compound: CC1(C)Cn2c(cc3c(NC(=O)c4ccc(NS(=O)(=O)CCO)cc4N4CCC(=C(F)F)CC4)ccc(C#N)c32)CO1 [Compound 393]
AUC (ng·h/mL): 22300

Compound: CC1=CCCn2c1cc1c(NC(=O)c3ccc(NS(=O)(=O)CCO)cc3N3CCC4(CC3)CC4)cccc12 [Compound 410]
AUC (ng·h/mL): 16400

Compound: CC1Cn2c(cc3c(NC(=O)c4ccc(NS(=O)(=O)CCO)cc4N4CCC5(CC4)CC5)cccc32)C(C)O1 (single isomer, unassigned) [Compound 312-P3]
AUC (ng·h/mL): 32400

Compound: CC1(C)Cn2c(nc3c(NC(=O)c4ccc(NS(=O)(=O)CCO)cc4N4CCC5(CC4)CC5)cccc32)CO1 [Compound 391]
AUC (ng·h/mL): 38000
